Data origin: patent US10946017B2

# system: TBK1 (Homo sapiens (Human), UniProt Q9UHD2)
# Sequence (Q9UHD2 whole entry): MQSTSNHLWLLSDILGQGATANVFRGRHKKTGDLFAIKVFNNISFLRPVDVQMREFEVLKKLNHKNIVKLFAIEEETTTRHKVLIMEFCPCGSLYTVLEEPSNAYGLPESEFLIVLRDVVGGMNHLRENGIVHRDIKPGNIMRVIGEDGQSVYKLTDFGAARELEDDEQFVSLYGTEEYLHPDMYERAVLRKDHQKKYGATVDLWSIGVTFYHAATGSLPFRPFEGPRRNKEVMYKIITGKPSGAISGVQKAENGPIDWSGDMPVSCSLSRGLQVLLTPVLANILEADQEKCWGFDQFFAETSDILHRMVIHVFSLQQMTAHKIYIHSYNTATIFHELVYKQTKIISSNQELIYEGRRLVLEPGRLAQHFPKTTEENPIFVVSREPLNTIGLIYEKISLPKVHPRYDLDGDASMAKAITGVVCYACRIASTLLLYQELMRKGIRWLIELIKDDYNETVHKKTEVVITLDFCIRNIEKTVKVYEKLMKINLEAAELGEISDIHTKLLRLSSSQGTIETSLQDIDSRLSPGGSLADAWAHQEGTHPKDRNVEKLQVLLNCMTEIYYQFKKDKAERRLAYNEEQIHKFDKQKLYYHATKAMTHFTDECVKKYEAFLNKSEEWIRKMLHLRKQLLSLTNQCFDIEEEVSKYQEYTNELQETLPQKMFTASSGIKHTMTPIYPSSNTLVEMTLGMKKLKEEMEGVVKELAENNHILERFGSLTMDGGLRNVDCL
# assay_method_text: In vitro TBK1 degradation assay, MDA MB 231 cells (compounds 34-57), immunoblot
# Format: cell-based
# cond: 1 uM compound, 16 h, read-out: % TBK1 remaining at 1 uM Cmpd
# Description: MDA MB 231 cells were purchased from ATCC and cultured in RPMI-1640 (Gibco), supplemented with 10% FBS (Gibco). PROTAC treatments were carried out in 24-well plates for 16 h. Cells were harvested, and lysed in RIPA buffer (50 mM Tris pH8, 150 mM NaCl, 1% Tx-100, 0.1% SDS, 0.5% Sodium Deoxycholate) supplemented with protease and phosphatase inhibitors. Lysates were clarified at 16,000 g for 10 minutes, and supernatants were separated by SDS-PAGE. Immunoblotting was performed using standard protocols. […]
test_readout: remaining activity at 1 µM

stdin: For the molecule Cc1ncsc1-c1ccc(CNC(=O)[C@@H]2C[C@@H](O)CN2C(=O)[C@H](C(C)C)N2Cc3ccccc3C2=O)c(OCCCCOCCCCOc2ccc(Nc3ncc(Br)c(NCCCN(C)C(=O)C4CCC4)n3)cc2)c1 [Compound 40] , report remaining activity at 1 µM.
stdout: ≥ 81%

stdin: For the molecule C=Cc1cnc(Nc2cccc(OCCCOCCCCOCCCOCC(=O)N[C@H](C(=O)N3C[C@H](O)C[C@H]3C(=O)NCc3ccc(-c4scnc4C)cc3)C(C)(C)C)c2)nc1NCCCN(C)C(=O)C1CCC1 [Compound 54] , report remaining activity at 1 µM.
stdout: 41 to 80%

stdin: For the molecule Cc1ncsc1-c1ccc(CNC(=O)[C@@H]2C[C@@H](O)CN2C(=O)[C@H](C(C)C)N2Cc3ccccc3C2=O)c(OCCOCCOCCCCOCCOCCOc2ccc(Nc3ncc(Br)c(NCCCN(C)C(=O)C4CCC4)n3)cc2)c1 [Compound 45] , report remaining activity at 1 µM.
stdout: 41 to 80%

stdin: For the molecule Cc1ncsc1-c1ccc(CNC(=O)[C@@H]2C[C@@H](O)CN2C(=O)[C@H](C(C)C)N2Cc3ccccc3C2=O)c(OCCOCCOCCCOCCOCCOc2ccc(Nc3ncc(Br)c(NCCCN(C)C(=O)C4CCC4)n3)cc2)c1 [Compound 42] , report remaining activity at 1 µM.
stdout: 41 to 80%

stdin: For the molecule Cc1ncsc1-c1ccc(CNC(=O)[C@@H]2C[C@@H](O)CN2C(=O)[C@H](C(C)C)N2Cc3ccccc3C2=O)c(OCCOCCOc2ccc(Nc3ncc(Br)c(NCCCN(C)C(=O)C4CCC4)n3)cc2)c1 [Compound 34] , report remaining activity at 1 µM.
stdout: 41 to 80%

* * *

Entries with reported IC50 on Von Hippel-Lindau (VHL) E3 ligase (Homo sapiens (Human), UniProt P40337)
Sequence (P40337 whole entry, looked up): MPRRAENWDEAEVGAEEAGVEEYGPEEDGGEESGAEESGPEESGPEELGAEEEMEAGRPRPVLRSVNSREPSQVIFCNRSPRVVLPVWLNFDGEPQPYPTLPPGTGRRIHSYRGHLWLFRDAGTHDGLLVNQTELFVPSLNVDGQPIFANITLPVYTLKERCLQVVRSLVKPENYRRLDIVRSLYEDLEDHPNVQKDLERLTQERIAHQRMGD
Sequence (Q15370 whole entry partner, looked up): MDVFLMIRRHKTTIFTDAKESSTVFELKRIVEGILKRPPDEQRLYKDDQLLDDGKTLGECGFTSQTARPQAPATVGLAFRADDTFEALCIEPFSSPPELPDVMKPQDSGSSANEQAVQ
Sequence (Q15369 whole entry partner, looked up): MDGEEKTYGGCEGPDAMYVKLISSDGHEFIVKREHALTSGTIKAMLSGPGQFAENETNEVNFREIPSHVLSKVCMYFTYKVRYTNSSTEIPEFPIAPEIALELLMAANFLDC
API: value field is a number in µM; no unit string.

stdin: For the molecule `Cc1ncsc1-c1ccc(CNC(=O)[C@@H]2C[C@@H](O)CN2C(=O)CNC(=O)COCCCOCCCCOCCCOc2ccc(Nc3ncc(Br)c(NCCCN(C)C(=O)C4CCC4)n3)cc2)cc1` , report IC50.
stdout: 106

stdin: For the molecule `Cc1ncsc1-c1ccc(CNC(=O)[C@@H]2C[C@@H](O)CN2C(=O)[C@H](C)NC(=O)COCCCOCCCCOCCCOc2ccc(Nc3ncc(Br)c(NCCCN(C)C(=O)C4CCC4)n3)cc2)cc1` , report IC50.
stdout: 23.6

stdin: For the molecule `CCC[C@H](NC(=O)COCCCOCCCCOCCCOc1ccc(Nc2ncc(Br)c(NCCCN(C)C(=O)C3CCC3)n2)cc1)C(=O)N1C[C@H](O)C[C@H]1C(=O)NCc1ccc(-c2scnc2C)cc1` , report IC50.
stdout: 6.2

stdin: For the molecule `CC[C@H](NC(=O)COCCCOCCCCOCCCOc1ccc(Nc2ncc(Br)c(NCCCN(C)C(=O)C3CCC3)n2)cc1)C(=O)N1C[C@H](O)C[C@H]1C(=O)NCc1ccc(-c2scnc2C)cc1` , report IC50.
stdout: 70.4

stdin: For the molecule `Cc1ncsc1-c1ccc(CNC(=O)[C@@H]2C[C@@H](O)CN2C(=O)[C@@H](NC(=O)COCCCOCCCCOCCCOc2ccc(Nc3ncc(Br)c(NCCCN(C)C(=O)C4CCC4)n3)cc2)C(C)C)cc1` , report IC50.
stdout: 1.45
